# credit: patent US4401660A

Listed here are compounds together with their documented minimal inhibitory concentration (MIC).
# System: Staphylococcus epidermidis EPI1
# Test Summary: MIC, standard agar-dilution assay (Table II)
# Assay type: cell-based
# Parameters: unit not given here

Study these solved cases before continuing.
CCC1OC(=O)CC(O)C(C)C(OC2OC(C)C(O)C(N(C)C)C2O)C(CC=O)CC(C)C(=O)C=CC(C)=CC1COC(=O)Cc1ccccc1 (centres unmarked): 0.125
CCC1OC(=O)CC(O)C(C)C(OC2OC(C)C(O)C(N(C)C)C2OC(C)=O)C(CC=O)CC(C)C(=O)C=CC(C)=CC1COC(=O)C12CC3CC(CC(C3)C1)C2 (centres unmarked): 1
CCC1OC(=O)CC(O)C(C)C(OC2OC(C)C(OC(C)=O)C(N(C)C)C2OC(C)=O)C(CC=O)CC(C)C(=O)C=CC(C)=CC1COC(=O)Cc1ccccc1 (centres unmarked): 0.25
CCC1OC(=O)CC(O)C(C)C(OC2OC(C)C(OC(C)=O)C(N(C)C)C2OC(C)=O)C(CC=O)CC(C)C(=O)C=CC(C)=CC1COS(C)(=O)=O (centres unmarked): 0.5
CCC1OC(=O)CC(O)C(C)C(OC2OC(C)C(O)C(N(C)C)C2O)C(CC=O)CC(C)C(=O)C=CC(C)=CC1COC(=O)Cc1ccc(Cl)cc1 (centres unmarked): 0.125
CCC1OC(=O)CC(O)C(C)C(OC2OC(C)C(O)C(N(C)C)C2O)C(CC=O)CC(C)C(=O)C=CC(C)=CC1COC(=O)CC(C)C (centres unmarked): 0.25
CCC1OC(=O)CC(O)C(C)C(OC2OC(C)C(O)C(N(C)C)C2OC(C)=O)C(CC=O)CC(C)C(=O)C=CC(C)=CC1CO (centres unmarked): 2
CCC1OC(=O)CC(O)C(C)C(OC2OC(C)C(O)C(N(C)C)C2O)C(CC=O)CC(C)C(=O)C=CC(C)=CC1COC(=O)C12CC3CC(CC(C3)C1)C2 (centres unmarked): 1
CCC1OC(=O)CC(O)C(C)C(OC2OC(C)C(OC(=O)CC(C)C)C(N(C)C)C2OC(C)=O)C(CC=O)CC(C)C(=O)C=CC(C)=CC1COC(=O)CC(C)C (centres unmarked): 1
CCC1OC(=O)CC(O)C(C)C(OC2OC(C)C(O)C(N(C)C)C2OC(C)=O)C(CC=O)CC(C)C(=O)C=CC(C)=CC1COC(=O)C(Cl)(Cl)Cl (centres unmarked): 1

Request: Tell me the measured minimal inhibitory concentration (MIC) of CCC1OC(=O)CC(O)C(C)C(OC2OC(C)C(OC(C)=O)C(N(C)C)C2OC(C)=O)C(CC=O)CC(C)C(=O)C=CC(C)=CC1COC(=O)C(Cl)Cl (centres unmarked) , please.
Result: 1

----------
# System: Pasteurella multocida
# Test Summary: Treatment of Pasteurella infections in chicks (Table V)
# Format: in vivo, one-day-old chicks
# Experimental Conditions: 30 mg/kg by subcutaneous injection one and four hours post challenge
Quantity Name: Deaths in Treated Chicks/Number Treated

CCC1OC(=O)CC(O)C(C)C(OC2OC(C)C(O)C(N(C)C)C2O)C(CC=O)CC(C)C(=O)C=CC(C)=CC1COP(=O)(Oc1ccccc1)Oc1ccccc1 (stereo not shown) [Compound 48, 23-O-(Diphenylphosphoryl)-OMT]: 10/10
CCC1OC(=O)CC(O)C(C)C(OC2OC(C)C(O)C(N(C)C)C2OC(C)=O)C(CC=O)CC(C)C(=O)C=CC(C)=CC1COC(=O)CCc1ccccc1 (stereo not shown) [Compound 30]: 6/10
CCC1OC(=O)CC(O)C(C)C(OC2OC(C)C(O)C(N(C)C)C2O)C(CC=O)CC(C)C(=O)C=CC(C)=CC1COC(=O)C(N)c1ccccc1 (stereo not shown) [Compound 57]: 0/10

Request: Tell me the measured Deaths in Treated Chicks/Number Treated of CCC1OC(=O)CC(O)C(C)C(OC2OC(C)C(O)C(N(C)C)C2O)C(CC=O)CC(C)C(=O)C=CC(C)=CC1COC(=O)CCc1ccccc1 (stereo not shown) [Compound 54] , please.
Result: 0/10
